- Tested on: HCV replicon 1AY93H
- experimental_details: Cell-based HCV Replicon Assay A, replicon 1AY93H
- recorded_conditions: read-out: 1A Y93H IC50, replicon 1AY93H
readout: IC50 (nM)
Respond with the bare value in nM.

Completed entries (count: 3):
[
  {
    "compound": "COC(=O)N[C@H](C(=O)N1CCC[C@H]1c1ncc(-c2cc(F)c3c(c2)OC(c2ncc(-c4ccc(C#N)cc4)s2)n2c-3cc3cc(-c4cnc([C@@H]5CCCN5C(=O)[C@@H](NC(=O)OC)C(C)C)[nH]4)ccc32)[nH]1)C(C)C (single isomer, unassigned) [Compound 43]",
    "unit_annotation": "nM",
    "IC50": 0.0081
  },
  {
    "compound": "COC(=O)NC(C(=O)N1CCC[C@H]1c1ncc(-c2ccc3c(c2)cc2n3C(c3cnc(CC(C)C)s3)Oc3cc(-c4cnc([C@@H]5CCCN5C(=O)[C@@H](NC(=O)OC)C(C)C)[nH]4)cc(F)c3-2)[nH]1)C1CCOC(C)(C)C1 (single isomer, unassigned) [Compound 544]",
    "unit_annotation": "nM",
    "IC50": 0.005
  },
  {
    "compound": "COC(=O)NC(C(=O)N1CCC[C@H]1c1ncc(-c2ccc3c(c2)cc2n3C(c3cnc(C4CCC4)s3)Oc3cc(-c4cnc([C@@H]5CCCN5C(=O)[C@@H](NC(=O)OC)C(C)C)[nH]4)cc(C)c3-2)[nH]1)C1C[C@@H](C)O[C@@H](C)C1 (single isomer, unassigned) [Compound 218]",
    "unit_annotation": "nM",
    "IC50": 0.12
  }
]

Turning now to a further record.
Any idea what IC50 came out for CCc1ncc(C2Oc3cc(-c4cnc([C@@H]5CCCN5C(=O)[C@@H](NC(=O)OC)C(C)C)[nH]4)cc(F)c3-c3cc4cc(-c5cnc([C@@H]6C[C@H]7C[C@H]7N6C(=O)[C@@H](NC(=O)OC)C6C[C@@H](C)O[C@@H](C)C6)[nH]5)ccc4n32)s1 (single isomer, unassigned) [Compound 97] on HCV replicon 1AY93H?
0.0278

====

- System: HCV replicon 1AQ30D
- experimental_details: Cell-based HCV Replicon Assay B, replicon 1AQ30D
- recorded_conditions: Hepatitis C virus, read-out: 1A Q30D IC50 (nM), replicon 1AQ30D
readout: IC50 (nM)
Respond with the bare value in nM.

Completed entries (count: 3):
[
  {
    "molecule": "COC(=O)N[C@H](C(=O)N1CCC[C@H]1c1ncc(-c2cc(F)c3c(c2)OC(c2cnc(C4CCCC4)s2)n2c-3cc3cc(-c4cnc([C@@H]5CCCN5C(=O)[C@@H](NC(=O)OC)C(C)C)[nH]4)ccc32)[nH]1)C(C)C (single isomer, unassigned) [Compound 25]",
    "IC50 / nM": 0.07
  },
  {
    "molecule": "COC(=O)NC(C(=O)N1CCC[C@H]1c1ncc(-c2ccc3c(c2)cc2n3C(c3cnc(C)s3)Oc3cc(-c4cnc([C@@H]5CCCN5C(=O)[C@@H](NC(=O)OC)C(C)C)[nH]4)cc(F)c3-2)[nH]1)C1C[C@@H](C)O[C@@H](C)C1 (single isomer, unassigned) [Compound 30]",
    "IC50 / nM": 0.112
  },
  {
    "molecule": "COC(=O)N[C@H](C(=O)N1CCC[C@H]1c1ncc(-c2cc(F)c3c(c2)OC(c2cnc(-c4ccc(F)cc4)s2)n2c-3cc3cc(-c4cnc([C@@H]5CCCN5C(=O)[C@@H](NC(=O)OC)C(C)C)[nH]4)ccc32)[nH]1)C(C)C (single isomer, unassigned) [Compound 31]",
    "IC50 / nM": 0.046
  }
]

Turning now to a further record.
Quick one: IC50 for COC(=O)NC(C(=O)N1[C@@H]2C[C@@H]2C[C@H]1c1ncc(-c2ccc3c(c2)cc2n3C(c3cnc(C4(C)CCCC4)s3)Oc3cc(-c4cnc([C@@H]5CCCN5C(=O)[C@@H](NC(=O)OC)C(C)C)[nH]4)cc(F)c3-2)[nH]1)C1C[C@@H](C)O[C@@H](C)C1 (single isomer, unassigned) [Compound 473] ?
0.011

Hello, the source for this data is patent US9555038B2, in case you need it.
